Cited source for all entries: patent US20140315251A1

# DH82 pSTAT Assay, Co-incubation IC50 per entry
Molecular target: Recombinant canine IL-31 produced in CHO cells (canine)
Sequence (chain, as listed by the source limits assumed, form in doubt): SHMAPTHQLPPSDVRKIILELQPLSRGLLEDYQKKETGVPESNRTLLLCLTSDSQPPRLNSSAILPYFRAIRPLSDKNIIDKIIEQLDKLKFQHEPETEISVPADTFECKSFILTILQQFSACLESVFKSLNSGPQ
Assay: cell-based or functional assay
ASSAY_READOUT: DH82 pSTAT Assay, Co-incubation IC50 (µg/ml)

[
  {
    "BINDER": "Mouse 11E12 (antibody, V domains shown) VH: QVQLQQSGAELVKPGASVKLSCKASGYTFKYYDINWVRQRPEQGLEWIGWIFPGDGGTKYNETFKGKATLTTDKSSSTAYMQLSRLTSEDSAVYFCARGGTSVIRDAMDYWGQGTSVTVSS VL: DIVLTQSPASLAVSLGQRATISCRASESVDNYGISFMHWYQQKPGQPPKLLIYRASNLESGIPARFSGSGSRTDFTLTINPVETDDVATYYCQQSNKDPLTFGAGTKLELK",
    "ASSAY_READOUT": "DH82 pSTAT Assay, Co-incubation IC50",
    "OBSERVED": 1.61
  },
  {
    "BINDER": "Caninized 11E12 FW2 (antibody, V domains shown) VH: EVQLVQSGAEVKKPGASVKVSCKTSGYTFKYYDINWVRQAPGAGLDWMGWIFPGDGGTKYNETFKGRVTLTADTSTSTAYMELSSLRAGDIAVYYCARGGTSVIRDAMDYWGQGTLVTVSS VL: DIVMTQTPLSLSVSPGEPASISCRASESVDNYGISFMHWYQQKPGQPPKLLIYRASNLESGVPDRFSGSGSGTDFTLRISRVEADDAGVYYCQQSNKDPLTFGAGTKLEIKR",
    "ASSAY_READOUT": "DH82 pSTAT Assay, Co-incubation IC50",
    "OBSERVED": 2.7
  },
  {
    "BINDER": "Mouse 34D03 (antibody, V domains shown) VH: EVQLVESGGDLVKPGGSLKLSCAASGFSFSNYGMSWVRQTPDKRLEWVATISYGGSYTYYPDNIKGRFTISRDNAKNTLYLQMSSLKSEDTAMYYCVRGYGYDTMDYWGQGTSVTVSS VL: DILLTQSPASLAVSLGQRAIISCKASQSVSFAGTGLMHWYQQKPGQQPKLLIYRASNLEAGVPTRFSGSGSRTDFTLNIHPVEEEDAATYFCQQSREYPWTFGGGTKLEIK",
    "ASSAY_READOUT": "DH82 pSTAT Assay, Co-incubation IC50",
    "OBSERVED": 1.73
  }
]
